Entries and their pIC50 values follow.
# test summary: Inhibition of chymotrypsin
pIC50: −log10 of the molar value.
measured property: pIC50

>>> endpoint_value("CC[C@@H](C)[C@@H]1NC(=O)[C@H](Cc2ccccc2)N(C)C(=O)[C@H]([C@@H](C)CC)N2C(=O)[C@H](CC[C@H]2OC)NC(=O)[C@H](CC2C=CC(O)C=C2)NC(=O)[C@@H](NC(=O)[C@@H](CCc2ccc(O)cc2)NC(=O)[C@@H](CO)OC)[C@@H](C)OC1=O (some centres undefined) [OSCILLAPEPTIN C]")
5.55
>>> endpoint_value("CC[C@H](C)[C@@H]1NC(=O)[C@H](Cc2ccc(O)cc2)N(C)C(=O)[C@H](CC(C)C)N2C(=O)[C@H](CC[C@H]2OC)NC(=O)[C@H](CC(C)C)NC(=O)[C@@H]2[C@@H](OC1=O)C(C)CN2C(=O)[C@H](CCC(N)=O)NC(C)=O (some centres undefined) [NOSTOPEPTIN F]")
5.42
>>> endpoint_value("CC[C@H](C)[C@@H]1NC(=O)[C@H](Cc2ccccc2)N(C)C(=O)[C@H](C(C)C)N2C(=O)[C@H](CC[C@H]2O)NC(=O)[C@H](CC2C=CC(O)CC2)NC(=O)[C@@H](NC(=O)[C@@H](N)CCC(=O)O)[C@@H](C)OC1=O (some centres undefined) [MICROPEPTIN 88A]")
6.40
>>> endpoint_value("CC[C@H](C)[C@@H]1NC(=O)[C@H](Cc2ccccc2)N(C)C(=O)[C@H](C(C)C)N2C(=O)[C@H](CC[C@H]2O)NC(=O)[C@H](Cc2ccc(O)cc2)NC(=O)[C@@H](NC(=O)[C@H](CCC(=O)O)NC(=O)[C@H](Cc2ccc(O)cc2)NC(C)=O)[C@@H](C)OC1=O [MICROPEPTIN 88Y]")
5.89

----------
Entries and their IC50 values follow.
# test summary: Inhibition of chymotrypsin
measured property: IC50 (µM)

>>> endpoint_value("CCCCCC(=O)N[C@@H](CC(=O)O)C(=O)N[C@@H]1C(=O)N[C@@H](Cc2ccc(O)cc2)C(=O)N[C@H]2CC[C@@H](O)N(C2=O)[C@@H]([C@@H](C)CC)C(=O)N(C)[C@@H](Cc2ccc(O)cc2)C(=O)N[C@@H](C(C)C)C(=O)O[C@@H]1C [MICROPEPTIN SD979]")
2.4
>>> endpoint_value("CC[C@H](C)[C@@H]1NC(=O)[C@H](Cc2ccc(OC)cc2)N(C)C(=O)[C@H]([C@@H](C)O)N2C(=O)[C@H](CC[C@H]2O)NC(=O)[C@H](CC(C)C)NC(=O)[C@@H](NC(=O)[C@H](CCC(N)=O)NC(=O)[C@@H](NC(=O)[C@@H](O)CO)C(C)C)[C@@H](C)OC1=O [PLANKTOPEPTIN BL1061]")
2.1
>>> endpoint_value("CCCCCC(=O)N[C@@H](CC(=O)O)C(=O)N[C@@H]1C(=O)N[C@@H](Cc2ccc(O)cc2)C(=O)N[C@H]2CC[C@@H](O)N(C2=O)[C@@H]([C@@H](C)CC)C(=O)N(C)[C@@H](Cc2c[nH]c3ccccc23)C(=O)N[C@@H](C(C)C)C(=O)O[C@@H]1C [MICROPEPTIN SD1002]")
3.13

# credit: ChEMBL document CHEMBL1143074
